The reported measurements were obtained from PubChem BioAssay (NCI).

The entries below are paired with their reported growth.
Test system: ACHN renal
assayProcedure: NCI-60 one-dose screen, 48 h (100 = growth as untreated, 0 = no growth, -100 = all killed)
cond: 10 µM unless noted
The panel holds about 83,000 compounds, 20% with a hit somewhere; the sample as a whole holds those more often.

- compound: "Fc1ccc(/C=N/n2c(-c3cc(Cl)cc(Cl)c3Cl)nn(CNc3ccc(Cl)nn3)c2=S)cc1"
  resultUnits: "%"
  growth: 104
- compound: "O=C1c2ccccc2OC=C(c2ccccc2)N1CCCCNc1ccc(F)cc1"
  resultUnits: "%"
  growth: 97.5
- compound: "O=C1CN(CCN2CC(=O)NC(=O)C2)CC(=O)N1"
  resultUnits: "%"
  growth: 103
- compound: "O=C(c1cc(-c2ccc(Cl)cc2)nc2ccccc12)N1N=C(c2ccccc2)CC1c1cc(-c2ccccc2)nn1-c1ccccc1 (stereo unspecified)"
  resultUnits: "%"
  growth: 73
- compound: "CCN1CCN(Cc2ccc(NC(=O)Nc3cccc(-n4ccc5c(NC(=O)c6ccccc6)nccc54)c3)cc2C(F)(F)F)CC1"
  resultUnits: "%"
  growth: 96
- compound: "O=C(C[n+]1ccccc1Cl)c1ccc2c(c1)CCCC2"
  resultUnits: "%"
  growth: 105
- compound: "Clc1ccc(CN2COc3c(ccc4cccnc34)C2)cc1Cl"
  resultUnits: "%"
  growth: 4.57
- compound: "COc1cc(/C=C/C(=O)c2c(C)n([O-])c3cc(C)c(C)cc3[n+]2=O)cc(OC)c1OC"
  resultUnits: "%"
  growth: 69.2
- compound: "CCC1S/C(=N\\N=C(/C)c2cccs2)N(c2ccccc2)C1=O (stereo unspecified)"
  resultUnits: "%"
  growth: 113
- compound: "O=C1COc2ccccc2C(=O)N1CCCCNc1ccccc1"
  resultUnits: "%"
  growth: 110
- compound: "CC/C(=C(\\CC)c1ccc(OCCN(CC)CC)cc1)c1ccc(OCCN(CC)CC)cc1"
  resultUnits: "%"
  growth: 42.5
- compound: "Clc1ccc2c(NCCNc3nc(Cl)nc4ccccc34)ccnc2c1"
  resultUnits: "%"
  growth: -97.7
- compound: "O=c1c2ccccc2sc2c(NCCCNCCO)nc3ccccc3c12"
  resultUnits: "%"
  growth: -7.87
- compound: "CCn1c(SC)nnc1-c1cc2c([nH]c3ccccc32)c(-c2cccc(O)c2)n1"
  resultUnits: "%"
  growth: 30.5
- compound: "CC(=O)N1N=C(CCC(=O)c2nc3ccc([N+](=O)[O-])cc3[nH]2)OC1c1ccc(O)cc1 (stereo unspecified)"
  resultUnits: "%"
  growth: 106
- compound: "Cc1cccc(NCS(=O)(=O)O)c1"
  resultUnits: "%"
  growth: 107
- compound: "COc1cc(NC(=O)c2cc(OC)c3ccn(C)c3c2)cc2c1C[C@]1(C)CC[C@@H](O)C(C)(C)[C@H]1O2"
  resultUnits: "%"
  growth: 36.6
- compound: "O=C1C(Cl)=C(Nc2ccccc2)C(=O)C(Cl)=C1Nc1ccccc1"
  resultUnits: "%"
  growth: 109
- compound: "c1ccc(-c2nc3sc(C(c4ccccc4)c4ccccc4)nn3c2-c2ccccc2)cc1"
  resultUnits: "%"
  growth: 97.5
- compound: "Cc1ccccc1C[P+](c1ccccc1)(c1ccccc1)c1ccccc1"
  resultUnits: "%"
  growth: 71
- compound: "CCC1CN2C(=N1)c1ccccc1-c1cc(Cl)ccc12 (stereo unspecified)"
  resultUnits: "%"
  growth: 2.38
